test system: CD70 promoter; assay: Bisulfite sequencing of the CD70 (TNFSF7) promoter in CD4+ T cells; format: cell-based, human; settings: CD4+ T cells stimulated with anti-CD3 and anti-CD28, vs stimulated untreated controls (FIG. 13, 14)
quantity-kind: methylation of the 10 CG pairs between −515 and −423 of the TNFSF7 promoter

*Q* Provide one value: measured methylation of the 10 CG pairs between −515 and −423 of the TNFSF7 promoter of N#CC(=C(/N)Sc1ccccc1N)/C(C#N)=C(\N)Sc1ccccc1N
*A* appears to demethylate

*Q* Provide one value: measured methylation of the 10 CG pairs between −515 and −423 of the TNFSF7 promoter of CCN(CC)CCNC(=O)c1ccc(N)cc1 [procainamide]
*A* appears to demethylate

*Q* Provide one value: measured methylation of the 10 CG pairs between −515 and −423 of the TNFSF7 promoter of COc1cccc(-c2cc(=O)c3ccccc3o2)c1N
*A* appears to demethylate
